Hi there, I'd appreciate the recorded Ki for every entry that follows.
# targetSystem: GST-Bcl-2 (Homo sapiens (Human), UniProt P10415)
# Sequence (P10415 whole entry): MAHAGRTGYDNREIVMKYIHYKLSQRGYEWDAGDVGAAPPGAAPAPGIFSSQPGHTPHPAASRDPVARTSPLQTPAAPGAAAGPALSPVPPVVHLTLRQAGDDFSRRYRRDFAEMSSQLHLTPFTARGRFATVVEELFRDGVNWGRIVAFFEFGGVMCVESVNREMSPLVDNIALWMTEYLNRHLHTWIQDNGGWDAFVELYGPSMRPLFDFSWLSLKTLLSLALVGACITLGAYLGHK
# methodNotes: Time Resolved-Fluorescence Resonance Energy Transfer (TR-FRET) Bcl-2 binding assay
# experimentalSetup: GST-Bcl-2 1 nM, F-Bak peptide probe 100 nM, Tb-anti-GST antibody 1 nM; Ki by Wang's equation
Please state the figure in nM; there is no need to write the unit.

Q: Please provide the recorded Ki for CN(C)CCCNc1ccc(S(=O)(=O)NC(=O)c2ccc(N3CCN(Cc4ccccc4-c4ccc(Cl)cc4)CC3)cc2Oc2ccc3[nH]cc(CCC(=O)N4CCOCC4)c3c2)cc1[N+](=O)[O-] , tested on GST-Bcl-2 (Homo sapiens (Human), UniProt P10415).
Ans: 20.4

Q: Please provide the recorded Ki for CNC(=O)c1cccc(Oc2cc(N3CCN(Cc4ccccc4-c4ccc(Cl)cc4)CC3)ccc2C(=O)NS(=O)(=O)c2ccc(NCCCN(C)C)c([N+](=O)[O-])c2)c1 , tested on GST-Bcl-2 (Homo sapiens (Human), UniProt P10415).
Ans: 2.32

Q: Please provide the recorded Ki for CN1CCC(Nc2ccc(S(=O)(=O)NC(=O)c3ccc(N4CCN(CC5=C(c6ccc(Cl)cc6)CC(C)(C)CC5)CC4)cc3Oc3cccc(CO)c3)cc2[N+](=O)[O-])CC1 , tested on GST-Bcl-2 (Homo sapiens (Human), UniProt P10415).
Ans: 1.34
